system: K562; assay: NCI tumour cell line growth inhibition, 48 h
Calls of active or inactive are those of the source. Rule as the data show it: active = GI50 up to about 1.1 µM and inactive = higher.
The compounds listed here are annotated with their GI50.

- compound: "Nc1nc(Cl)c2ncn(Cc3ccccc3CCl)c2n1"
  measurement.label: "GI50"
  experimental.result: "4.43 µM (inactive)"
- compound: "COC(=O)c1ccc(OCc2ccc3oc(=O)c(-c4ccccc4)nc3c2)cc1"
  measurement.label: "GI50"
  experimental.result: "27.9 µM (inactive)"
- compound: "CCC(O)(Cc1ccc(OC)cc1)c1ccc(OC)cc1 (stereo not given)"
  measurement.label: "GI50"
  experimental.result: "> 100 µM (inactive)"

In: # value lookup — system K562, readout GI50, item "CC1=C2CC(C)(C)/C=C\C(=O)/C(C)=C\C3=C[C@H](C)C[C@]3(O2)C1=O"
Out: 1.51 µM (inactive)

In: GET /values?readout=GI50&system=K562&item= "CC(=O)Nc1ccc(S(=O)(=O)N/N=C/CN2C(=O)c3ccccc3C2=O)cc1"
Out: > 100 µM (inactive)
